Just for reference, patent US10201545B2 is where these values come from.

molecular target: isomerase (Mus musculus (Mouse), UniProt Q91ZQ5); test: In vivo murine isomerase assay (recovery of 11-cis-retinal after photobleaching); set-up: species or system CD-1 (albino) male mice; settings: mouse, po, 1 mg/Kg oral gavage, 2 h; negative numbers leveled to 0%
Sequence (Q91ZQ5 whole entry): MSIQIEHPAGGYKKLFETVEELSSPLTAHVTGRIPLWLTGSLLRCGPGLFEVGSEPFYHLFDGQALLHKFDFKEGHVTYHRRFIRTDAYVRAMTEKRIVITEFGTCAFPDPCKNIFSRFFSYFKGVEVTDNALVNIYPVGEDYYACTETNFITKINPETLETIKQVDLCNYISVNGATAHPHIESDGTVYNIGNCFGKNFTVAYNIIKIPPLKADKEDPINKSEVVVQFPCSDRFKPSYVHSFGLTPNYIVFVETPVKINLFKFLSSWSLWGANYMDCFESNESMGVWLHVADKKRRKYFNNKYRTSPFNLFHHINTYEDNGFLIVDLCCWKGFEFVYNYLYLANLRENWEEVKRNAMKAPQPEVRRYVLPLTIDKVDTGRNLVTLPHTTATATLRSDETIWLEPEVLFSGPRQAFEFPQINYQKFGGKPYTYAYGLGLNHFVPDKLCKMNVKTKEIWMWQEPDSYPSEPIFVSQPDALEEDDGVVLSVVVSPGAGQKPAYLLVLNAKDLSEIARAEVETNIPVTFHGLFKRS
Listed compounds paired with reported inhibition at 1 mg/kg
The reply should be a number in %, with the unit left off.

INSERT INTO assay_data (compound, measured_on, measured_endpoint, unit_label, reported) VALUES
  ('CC1=C(/C=C/c2cccc(C(F)CCN)c2)C(C)(C)CCC1 (stereo not shown)', 'isomerase (Mus musculus (Mouse), UniProt Q91ZQ5)', 'inhibition at 1 mg/kg', '%', 0),
  ('NC[C@@H](O)Cc1cccc(/C=C/c2c(Cl)cccc2Cl)c1', 'isomerase (Mus musculus (Mouse), UniProt Q91ZQ5)', 'inhibition at 1 mg/kg', '%', 19),
  ('CC1=C(/C=C/c2cccc(OCCN)c2)C(C)(C)CCC1', 'isomerase (Mus musculus (Mouse), UniProt Q91ZQ5)', 'inhibition at 1 mg/kg', '%', 0);

Looking up NCCCc1cccc(/C=C/c2c(Cl)cccc2Cl)c1 , I see its inhibition at 1 mg/kg listed as 0

Looking up Cc1cccc(C)c1/C=C/c1cccc(CCCN)c1 , I see its inhibition at 1 mg/kg listed as 0

Looking up NC[C@H](O)Cc1cccc(/C=C/c2c(Cl)cccc2Cl)c1 , I see its inhibition at 1 mg/kg listed as 19

Looking up CC1=C(/C=C/c2cccc(C(=O)CCN)c2)C(C)(C)CCC1 , I see its inhibition at 1 mg/kg listed as 26

----------
target: isomerase (Mus musculus (Mouse)); experiment: In vivo murine isomerase assay (recovery of 11-cis-retinal after photobleaching); parameters: species or system CD-1 (albino) male mice; details: mouse, po, 5 mg/kg oral gavage, 4 h; negative numbers leveled to 0%
measured-endpoint: inhibition at 5 mg/kg (%)
The reply should be a number in %, with the unit left off.

Reference set, count: 2
INSERT INTO assay_data (molecule, unit_label, reported) VALUES
  ('CC1=C(/C=C/c2cccc(OCCN)c2)C(C)(C)CCC1 [Example 31]', '%', 53),
  ('CC(C)(O)/C=C/c1cccc(CCCN)c1 [Example 79]', '%', 24);

Looking up CC1=C(/C=C/c2cccc(C(N)CCN)c2)C(C)(C)CCC1 (stereo not shown) [Example 61] , I see its inhibition at 5 mg/kg listed as 12

Looking up CCCC(O)(/C=C/c1cccc(CCCN)c1)CCC [Example 83] , I see its inhibition at 5 mg/kg listed as 97

Looking up Cc1cccc(C)c1/C=C/c1cccc(CCCN)c1 [Example 1] , I see its inhibition at 5 mg/kg listed as 57

Looking up CC1=C(/C=C/c2cccc(C(F)CCN)c2)C(C)(C)CCC1 (stereo not shown) [Example 55] , I see its inhibition at 5 mg/kg listed as 75

Looking up NCCCc1cccc(/C=C/c2c(C(F)(F)F)cccc2C(F)(F)F)c1 [Example 49] , I see its inhibition at 5 mg/kg listed as 60

Looking up CC1=C(/C=C/c2cccc(C(O)C(C)CN)c2)C(C)(C)CCC1 (stereo not shown) [Example 59] , I see its inhibition at 5 mg/kg listed as 21

Looking up NCCCc1cccc(/C=C/c2c(Cl)cccc2Cl)c1 [Example 43] , I see its inhibition at 5 mg/kg listed as 79

Looking up NCCC(O)c1cccc(/C=C/C2(O)CCCCC2)c1 (stereo not shown) [Example 111] , I see its inhibition at 5 mg/kg listed as 90

----------
Biological target: isomerase (Mus musculus (Mouse), UniProt Q91ZQ5)
Test: In vivo murine isomerase assay (recovery of 11-cis-retinal after photobleaching)
Design: species or system CD-1 (albino) male mice
Details: mouse, po, 10 mg/kg oral gavage, 4 h; negative numbers leveled to 0%
Description: The capability of styrenyl derivatives to inhibit isomerase is determined by an in vivo murine isomerase assay. […] Retinoids were extracted from the eye and the regeneration of 11-cis-retinal was assessed at various time intervals. […] The area under the curve for 11-cis retinal oxime was calculated by Agilent Chemstation software and was recorded manually. […] Positive control mice (no compound administered) were sacrificed fully dark-adapted and the eye retinoids analyzed. […]
Listed molecules paired with reported inhibition at 10 mg/kg

So the reported inhibition at 10 mg/kg for NCCCc1cccc(/C=C/C2CCCCC2)c1 [Example 22] , on isomerase (Mus musculus (Mouse), UniProt Q91ZQ5), turned out to be 0%

So the reported inhibition at 10 mg/kg for CCC/C=C/c1cccc(CCCN)c1 [Example 23] , on isomerase (Mus musculus (Mouse), UniProt Q91ZQ5), turned out to be 0%

So the reported inhibition at 10 mg/kg for CC1=C(/C=C/c2cccc(CCCN)c2)C(C)(C)CCC1 [Example 21] , on isomerase (Mus musculus (Mouse), UniProt Q91ZQ5), turned out to be 80%

So the reported inhibition at 10 mg/kg for CC1=C(/C=C/c2cccc(C(C)CCN)c2)C(C)(C)CCC1 (stereo not drawn) [Example 27] , on isomerase (Mus musculus (Mouse), UniProt Q91ZQ5), turned out to be 11%

So the reported inhibition at 10 mg/kg for NCCCc1cccc(/C=C/c2c(Cl)cccc2Cl)c1 [Example 43] , on isomerase (Mus musculus (Mouse), UniProt Q91ZQ5), turned out to be 94%

So the reported inhibition at 10 mg/kg for CCCCC/C=C/c1cccc(CCCN)c1 [Example 24] , on isomerase (Mus musculus (Mouse), UniProt Q91ZQ5), turned out to be 16%
